target: recombinant human AMPK complex, containing α2β1γ2 (Homo sapiens, UniProt P54646+Q9Y478); construct: hsAMPKα2-552-His, hsAMPKβ1-2-270 and hsAMPKγ-2-569 respectively; hsAMPKβ1-2-270; hsAMPKγ-2-569; His (C); made in house; host or cells: Spodoptera frugiperda Sf21 (baculovirus); test: AMPK in vitro activation assay (HTRF); format: biochemical; details: potentiation of AMPK activity as percent over the basal signal (without compound)
Sequence (P54646 2-552): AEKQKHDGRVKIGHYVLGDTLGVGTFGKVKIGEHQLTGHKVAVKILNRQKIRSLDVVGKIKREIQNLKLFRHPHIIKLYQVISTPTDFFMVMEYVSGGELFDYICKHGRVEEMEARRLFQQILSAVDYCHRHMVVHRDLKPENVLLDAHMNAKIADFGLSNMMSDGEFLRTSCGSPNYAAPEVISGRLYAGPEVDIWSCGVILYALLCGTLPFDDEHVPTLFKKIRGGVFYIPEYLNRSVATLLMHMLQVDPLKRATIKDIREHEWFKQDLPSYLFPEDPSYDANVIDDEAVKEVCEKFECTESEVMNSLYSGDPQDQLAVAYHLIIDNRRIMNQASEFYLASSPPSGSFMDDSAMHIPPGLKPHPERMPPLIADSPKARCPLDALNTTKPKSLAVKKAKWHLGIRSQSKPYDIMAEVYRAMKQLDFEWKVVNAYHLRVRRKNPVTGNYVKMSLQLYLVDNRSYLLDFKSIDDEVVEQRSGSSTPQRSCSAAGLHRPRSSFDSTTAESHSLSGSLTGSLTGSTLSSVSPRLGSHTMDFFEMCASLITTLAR
Sequence (Q9Y478 2-270): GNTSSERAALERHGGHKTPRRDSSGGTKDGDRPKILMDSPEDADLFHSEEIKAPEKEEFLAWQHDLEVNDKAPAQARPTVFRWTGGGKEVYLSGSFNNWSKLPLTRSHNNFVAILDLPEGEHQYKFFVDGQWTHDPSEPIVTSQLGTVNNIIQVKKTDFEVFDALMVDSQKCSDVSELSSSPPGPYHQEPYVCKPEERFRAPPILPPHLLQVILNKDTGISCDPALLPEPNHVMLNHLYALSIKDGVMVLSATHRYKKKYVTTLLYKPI
Sequence (Q9UGJ0 2-569 partner limits assumed): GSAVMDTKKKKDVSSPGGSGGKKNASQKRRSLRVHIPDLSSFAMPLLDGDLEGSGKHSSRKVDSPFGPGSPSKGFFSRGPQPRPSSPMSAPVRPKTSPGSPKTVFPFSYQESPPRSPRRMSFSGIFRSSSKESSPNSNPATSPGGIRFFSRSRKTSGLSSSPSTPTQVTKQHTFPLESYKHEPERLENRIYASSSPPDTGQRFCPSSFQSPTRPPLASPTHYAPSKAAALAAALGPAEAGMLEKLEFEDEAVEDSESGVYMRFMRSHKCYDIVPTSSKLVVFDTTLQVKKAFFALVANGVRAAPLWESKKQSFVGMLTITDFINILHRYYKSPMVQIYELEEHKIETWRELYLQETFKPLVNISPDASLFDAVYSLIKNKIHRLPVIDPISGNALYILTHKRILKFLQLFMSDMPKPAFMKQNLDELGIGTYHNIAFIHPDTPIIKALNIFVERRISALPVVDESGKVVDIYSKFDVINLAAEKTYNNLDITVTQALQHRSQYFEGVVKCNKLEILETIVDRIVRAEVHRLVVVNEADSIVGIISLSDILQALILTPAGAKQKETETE
MEASUREMENT NAME: Emax (%)

Example results:
# MOL, Emax [%]
rows = [
    ("O=C1Nc2cc(F)c(-c3ccc(C4(CO)CC4)cc3)cc2C1=C(O)c1cc(C2CC2)no1", 133),
    ("COc1cc(C(O)=C2C(=O)Nc3cc(F)c(-c4ccc(C5(CO)CC5)cc4)cc32)on1", 133),
    ("COc1ccc(C(O)=C2C(=O)Nc3cc(Cl)c(-c4ccc(-c5cccc(OC)c5O)cc4)cc32)cc1F", 170),
    ("O=C1Nc2cc(Cl)c(-c3ccc(N4CCOCC4)cc3)cc2C1=C(O)c1cccc(Cl)c1", 156),
    ("Cc1cc(C(O)=C2C(=O)Nc3cc(Cl)c(-c4ccc(OCc5ncccn5)cc4)cc32)on1", 159),
]

(I) COc1c(F)cc(C(O)=C2C(=O)Nc3cc(Cl)c(-c4ccc(N5CCOCC5)cc4)cc32)cc1Cl
(II) O=C1Nc2cc(Cl)c(-c3ccc(C4(CO)CC4)cc3)cc2C1=C(O)c1ccccc1F
Q. Identify the item whose Emax is the smaller number: I or II Choose, then provide that item's label.
A. II
(II: 95%, I: 185%)

====

molecular target: recombinant human AMPK complex, containing α2β1γ2 (Homo sapiens, UniProt P54646+Q9Y478); construct: hsAMPKα2-552-His, hsAMPKβ1-2-270 and hsAMPKγ-2-569 respectively; hsAMPKβ1-2-270; hsAMPKγ-2-569; His (C); made in house; host or cells: Spodoptera frugiperda Sf21 (baculovirus); assay: AMPK in vitro activation assay (HTRF); type: biochemical; settings: potentiation of AMPK activity as percent over the basal signal (without compound)
MEASUREMENT NAME: Emax (%)

(1) O=C1Nc2cc(Cl)c(-c3ccc(N4CCOCC4)cc3)cc2C1=C(O)c1cccnc1 [Compound 25]
(2) Cc1nocc1C(O)=C1C(=O)Nc2cc(Cl)c(-c3ccc(N4CCOCC4)cc3)cc21 [Compound 60]
Q. # returns the entry with the larger Emax; inputs 1 and 2 Choose, then provide that item's label.
A. 2

(A) O=C1Nc2cc(Cl)c(-c3ccc(C4(CO)CC4)cc3)cc2C1=C(O)c1cccs1 [Compound 114]
(B) Cc1cc(C(O)=C2C(=O)Nc3cc(Cl)c(-c4ccc(C5CCCO5)cc4)cc32)on1 (centres unmarked) [Compound 68]
Q. # returns the entry with the larger Emax; inputs A and B Choose, then provide that item's label.
A. B

====

target: recombinant human AMPK complex, containing α2β1γ2 (Homo sapiens, UniProt P54646+Q9Y478); construct: hsAMPKα2-552-His, hsAMPKβ1-2-270 and hsAMPKγ-2-569 respectively; hsAMPKβ1-2-270; hsAMPKγ-2-569; His (C); made in house; host or cells: Spodoptera frugiperda Sf21 (baculovirus); assay: AMPK in vitro activation assay (HTRF); format: biochemical; settings: HTRF, recombinant human α2β1γ2 AMPK, 200 μM ATP, biotinylated ACC-CREBp peptide; repeat determinations on separate lines
pEC50: −log10 of the molar value. Structures can show the parent of a compound that is named as a salt.
MEASUREMENT NAME: pEC50

(A) Cc1cc(C(O)=C2C(=O)Nc3cc(Cl)c(-c4ccc(F)cc4O)cc32)on1
(B) COc1cc(C(O)=C2C(=O)Nc3cc(Cl)c(-c4ccc(C5=CCOCC5)cc4)cc32)on1
(C) COc1cc(C(O)=C2C(=O)Nc3cc(Cl)c(-c4ccc(OC5CCN(C)CC5)cc4)cc32)on1 [Compound 124, hydrochloride]
(D) Cc1cc(C(O)=C2C(=O)Nc3cc(Cl)c(-c4ccc(O)c(F)c4)cc32)on1
(E) O=C1Nc2cc(F)c(-c3ccc(C4(CO)CC4)cc3)cc2C1=C(O)c1cc(C2CC2)no1
Q. Task for the reader: place the compounds above in descending order according to recorded pEC50. Lab note: record answer as labels in requested order.
A. E, B, C, A, D
(E: 9.22, B: 8.52, C: 7.60, A: 6.82, D: 6.33)

====

target: recombinant human AMPK complex, containing α2β1γ2 (Homo sapiens, UniProt P54646+Q9Y478); construct: hsAMPKα2-552-His, hsAMPKβ1-2-270 and hsAMPKγ-2-569 respectively; hsAMPKβ1-2-270; hsAMPKγ-2-569; His (C); made in house; host or cells: Spodoptera frugiperda Sf21 (baculovirus); experiment: AMPK in vitro activation assay (HTRF); assay type: biochemical; details: potentiation of AMPK activity as percent over the basal signal (without compound)
Counter-ions that a name gives are not always drawn.
MEASUREMENT NAME: Emax (%)

Example results:
# COMPOUND, MEASUREMENT NAME, REPORTED MEASUREMENT
rows = [
    ("O=C1Nc2cc(Cl)c(-c3ccc(N4CCOCC4)cc3)cc2C1=C(O)c1ccc(F)cc1", "Emax", 153),
    ("COc1cccc(-c2ccc(-c3cc4c(cc3Cl)NC(=O)C4=C(O)c3cc(C)no3)cc2)c1O", "Emax", 193),
    ("CN1CCC(c2ccc(-c3cc4c(cc3Cl)NC(=O)C4=C(O)c3cc(F)cc(F)c3)cc2)C1 (stereo not drawn) [Compound 150, hydrochloride]", "Emax", 137),
    ("COc1cc(C(O)=C2C(=O)Nc3cc(Cl)c(-c4ccc(N5CCCC5)cc4)cc32)on1", "Emax", 271),
]

(a) COc1cc(C(O)=C2C(=O)Nc3cc(Cl)c(-c4ccc(C5CC(O)C5)cc4)cc32)on1 (stereo not drawn)
(b) Cc1cc(C(O)=C2C(=O)Nc3cc(Cl)c(-c4ccc(C5CC5)cc4)cc32)on1
Q. Identify the item whose Emax is the smaller number: a or b Choose, then provide that item's label.
A. b
(b: 147%, a: 319%)

(1) O=C1Nc2cc(Cl)c(-c3ccc(C4CC4)cc3)cc2C1=C(O)c1cccc(F)c1
(2) COc1cc(C(O)=C2C(=O)Nc3cc(Cl)c(-c4cnc(N(C)C)nc4)cc32)on1
(3) O=C1Nc2cc(Cl)c(-c3ccc(C4(CO)CC4)cc3)cc2C1=C(O)c1ccc(Cl)s1
Q. Number of compounds to sort: 3. Sort criterion: Emax, ascending. Lab note: record answer as labels in requested order.
A. 1, 2, 3

(a) O=C1Nc2cc(Cl)c(-c3ccc(C4=CCOCC4)cc3)cc2C1=C(O)c1cccc(F)c1
(b) O=C1Nc2cc(Cl)c(-c3ccc(N4CCOCC4)cc3)cc2C1=C(O)c1ccno1
(c) COc1cc(C(O)=C2C(=O)Nc3cc(Cl)c(-c4ccc(C5CCN(C)C5)cc4)cc32)on1 (stereo not drawn) [Compound 133, hydrochloride]
Q. Number of compounds to sort: 3. Sort criterion: Emax, ascending. Lab note: record answer as labels in requested order.
A. a, b, c

====

target: recombinant human AMPK complex, containing α2β1γ2 (Homo sapiens, UniProt P54646+Q9Y478); construct: hsAMPKα2-552-His, hsAMPKβ1-2-270 and hsAMPKγ-2-569 respectively; hsAMPKβ1-2-270; hsAMPKγ-2-569; His (C); made in house; host or cells: Spodoptera frugiperda Sf21 (baculovirus); assay: AMPK in vitro activation assay (HTRF); type: biochemical; details: HTRF, recombinant human α2β1γ2 AMPK, 200 μM ATP, biotinylated ACC-CREBp peptide; repeat determinations on separate lines
pEC50: −log10 of the molar value.
MEASUREMENT NAME: pEC50

(1) CCc1ccc(-c2cc3c(cc2Cl)NC(=O)C3=C(O)c2cc(C)no2)cc1
(2) CC(C)(C)c1cc(C(O)=C2C(=O)Nc3cc(Cl)c(-c4ccc(C5(CO)CC5)cc4)cc32)on1
(3) Cc1cc(C(O)=C2C(=O)Nc3cc(F)c(-c4ccc(N5CCOCC5)cc4)cc32)on1
(4) Cc1cc(C(O)=C2C(=O)Nc3cc(Cl)c(-c4ccc(-c5ccco5)cc4)cc32)on1
Q. Sort the list above on pEC50 in ascending fashion. Lab note: record answer as labels in requested order.
A. 1, 4, 3, 2

====

Target: recombinant human AMPK complex, containing α2β1γ2 (Homo sapiens, UniProt P54646+Q9Y478)
Construct: hsAMPKα2-552-His, hsAMPKβ1-2-270 and hsAMPKγ-2-569 respectively; hsAMPKβ1-2-270; hsAMPKγ-2-569; His (C); made in house; host or cells: Spodoptera frugiperda Sf21 (baculovirus)
Assay: AMPK in vitro activation assay (HTRF)
Format: biochemical
Settings: potentiation of AMPK activity as percent over the basal signal (without compound)
Procedure: The recombinant human AMPK complex, containing α2β1γ2 was obtained from baculovirus expression system and generated by cotransfection in Spodoptera frugiperda 21 (Sf21). […] A homogeneous time-resolved fluorescence (HTRF) assay was used (Li et al, Anal. Biochem. (2003) 321, 151-156) to identify compounds with stimulating activity for the recombinant human AMPK. […] The fluorescence signal was measured using an Envision multireader (Perkin Elmer). […]
Structures can show the parent of a compound that is named as a salt.
MEASUREMENT NAME: Emax (%)

Example results:
# COMPOUND, UNIT NAME, REPORTED MEASUREMENT
records = [
    ("Cc1cc(C(O)=C2C(=O)Nc3cc(Cl)c(-c4ccc(-c5ccncc5)cc4)cc32)on1 [Compound 35, hydrochloride]", "%", 151),
    ("COc1cc(C(O)=C2C(=O)Nc3cc(Cl)c(-c4ccc(C(O)CO)cc4)cc32)on1 (centres unmarked) [Compound 122]", "%", 172),
    ("Cc1cc(C(O)=C2C(=O)Nc3cc(F)c(-c4ccc(N5CCOCC5)cc4)cc32)on1 [Compound 29]", "%", 157),
    ("Cc1cc(C(O)=C2C(=O)Nc3cc(Cl)c(-c4ccc(OCCN5CCOCC5)cc4)cc32)on1 [Compound 82, hydrochloride]", "%", 130),
    ("Cc1cc(C(O)=C2C(=O)Nc3cc(Cl)c(-c4ccc(O)c(F)c4)cc32)on1 [Compound 44]", "%", 165),
]

(P) COc1ccc(C(O)=C2C(=O)Nc3cc(Cl)c(-c4ccc(N5CCOCC5)cc4)cc32)cc1F [Compound 77]
(Q) CCOc1cc(C(O)=C2C(=O)Nc3cc(Cl)c(-c4ccc(-c5cccc(OC)c5O)cc4)cc32)on1 [Compound 105]
(R) Cc1nnc(C(O)=C2C(=O)Nc3cc(Cl)c(-c4ccc(N5CCOCC5)cc4)cc32)o1 [Compound 16]
Q. Kindly order the items shown according to Emax, from the highest value down. Lab note: record answer as labels in requested order.
A. R, P, Q
(R: 268%, P: 128%, Q: 74%)
